- MEASURED_TARGET: T1, HLA-A*0201 loaded with the Carcinoembryonic antigen (CEA)-derived … peptide (biotin on the C-terminal biotinylation tag)
- T1 construct: Soluble, biotinylated, immobilised on a streptavidin chip
- RUN_DESCRIPTION: Biacore SPR
QUANTITY: koff

| BINDER | QUANTITY | EXPERIMENTAL_VALUE |
| --- | --- | --- |
| SEQ ID NO 23 (receptor, mutated soluble two domain ILT-2) MAGHLPKPTLWAEPGSVITMDQPVTLRCQGGQETQEYRLYREKKTAPWITRIPQELVKKGQFPIPSITWEHAGRYRCYYGSDTSQWSASSDPLELVVTGVYIKPTLSAQPSPVVNSGGNVTLQCDSQVAFDGFILCKEGEDEHPQCLNSQPHARGSSRAIFSVGPVSPSRRWWYRCYAYVEWLPYEWSLPSDLLELDVDG | koff | ≤ 2 s⁻¹ |
| SEQ ID NO 27 (receptor, mutated soluble two domain ILT-2) MHLPKPTLWAEPGSVITLQSPVTLRCQGGQETQQYRLYREKKTAPWITRIPQELVKKGQFPIPSITWEHAGRYRCYYGSDTRQWSASSDPLELVVTGVYIKPTLSAQPSPVVNSGGNVTLQCDSQVAFDGFILCKEGEDDHPQCLNSQPHARGSSRAIFSVGPVSPSRRWRYRCYAYPAWTPYEWSLPSDLLELDVDG | koff | ≤ 2 s⁻¹ |

API: the following record is the query input.
## Task Request the reported koff associated with SEQ ID NO 30 (receptor, mutated soluble two domain ILT-2) MAGHLPKPTLWAEPGSVITQGSPVTLRCQGGQETQEYRLYREKKTAPWITRIPQELVKKGQFPIPSITWEHAGRYRCYYGSDTSQWSASSDPLELVVTGVYIKPTLSAQPSPVVNSGGNVTLQCDSQVAFDGFILCKEGEDEHPQCLNSQPHARGSSRAIFSVGPVSPSRRWWYRCYAYPIWTPYEWSLPSDLLELDVDG
## Result ≤ 2 s⁻¹

These entries and their values trace back to patent US20100135997A1.
